Items are presented alongside their recorded In-vivo radioactivity distribution: intestine.
Experiment: In-vivo radioactivity distribution experiment using normal mice (Example 2)
Conditions: normal mice, intravenous, 30 min; Example 2 numbering

CN(C)c1ccc(C=CC(=O)c2ccc(I)s2)cc1 : 4.05 (0.99) percent of the dose/g
CNc1ccc(C(=O)/C=C/c2ccc(I)cc2)cc1 : 17.52 (1.74) percent of the dose/g
CNc1ccc(C=CC(=O)c2ccc(I)s2)cc1 : 4.36 (1.49) percent of the dose/g

Pending compound:
Task: Would you kindly share the measured In-vivo radioactivity distribution: intestine for CN(C)c1ccc(C(=O)/C=C/c2ccc(I)cc2)cc1 ?
Output: 12.50 (2.49) percent of the dose/g
